- Tested on: influenza A/Puerto Rico/8/34 (H1N1)
- experimental_conditions: /Puerto Rico/8/34, 24 h
Residues, ends and D or L forms follow the SMILES beside them. *: point of attachment. Arachidoyl = CCCCCCCCCCCCCCCCCCCC(=O)*; Stearoyl = CCCCCCCCCCCCCCCCCC(=O)*; Palmitoyl = CCCCCCCCCCCCCCCC(=O)*
endpoint_name: IC50 (µM)
Record the value in µM, omitting the unit from your answer.

# compound, endpoint_name, unit_name, reported_result
data = [
    ("CCCCCCCCCCCCCCCCCC(=O)N[C@@H](CCCCN)C(=O)N[C@@H](CCCCN)C(=O)N[C@@H](Cc1c[nH]c2ccccc12)C(=O)N[C@@H](CCCCN)C(=O)NCC(=O)NCC(=O)NCC(=O)N[C@@H](C)C(=O)N[C@@H](CCCNC(=N)N)C(=O)N[C@@H](CC(C)C)C(=O)N1CCC[C@H]1C(=O)N[C@@H](CCCNC(=N)N)C(N)=O [C18-Hp-GGG-Jp, C18-KKWKGGGARLPR] (Stearoyl-KKWKGGGARLPR-NH2)", "IC50", "µM", 6.99),
]

Ask: Please give the documented IC50 of CCCCCCCCCCCCCCCC(=O)N[C@@H](C)C(=O)N[C@@H](CCCNC(=N)N)C(=O)N[C@@H](CC(C)C)C(=O)N1CCC[C@H]1C(=O)N[C@@H](CCCNC(=N)N)C(=O)N[C@@H](CCCCN)C(=O)N[C@@H](CCCCN)C(=O)N[C@@H](Cc1c[nH]c2ccccc12)C(=O)N[C@@H](CCCCN)C(N)=O [C16-Jp-Hp, C16-ARLPRKKWK] (Palmitoyl-ARLPRKKWK-NH2)
Reply: 1.29

Ask: Please give the documented IC50 of CCCCCCCCCCCCCCCCCCCC(=O)N[C@@H](CCCCN)C(=O)N[C@@H](CCCCN)C(=O)N[C@@H](Cc1c[nH]c2ccccc12)C(=O)N[C@@H](CCCCN)C(=O)NCC(=O)NCC(=O)NCC(=O)N[C@@H](C)C(=O)N[C@@H](CCCNC(=N)N)C(=O)N[C@@H](CC(C)C)C(=O)N1CCC[C@H]1C(=O)N[C@@H](CCCNC(=N)N)C(N)=O [C20-Hp-GGG-Jp, C20-KKWKGGGARLPR] (Arachidoyl-KKWKGGGARLPR-NH2)
Reply: 5.22
